Attribution: BindingDB's records for doi:10.7270/Q2TX3CSC

target-or-test-system: Solute carrier family 12 member 5 (Homo sapiens, UniProt Q9H2X9)
Sequence (Q9H2X9 whole entry): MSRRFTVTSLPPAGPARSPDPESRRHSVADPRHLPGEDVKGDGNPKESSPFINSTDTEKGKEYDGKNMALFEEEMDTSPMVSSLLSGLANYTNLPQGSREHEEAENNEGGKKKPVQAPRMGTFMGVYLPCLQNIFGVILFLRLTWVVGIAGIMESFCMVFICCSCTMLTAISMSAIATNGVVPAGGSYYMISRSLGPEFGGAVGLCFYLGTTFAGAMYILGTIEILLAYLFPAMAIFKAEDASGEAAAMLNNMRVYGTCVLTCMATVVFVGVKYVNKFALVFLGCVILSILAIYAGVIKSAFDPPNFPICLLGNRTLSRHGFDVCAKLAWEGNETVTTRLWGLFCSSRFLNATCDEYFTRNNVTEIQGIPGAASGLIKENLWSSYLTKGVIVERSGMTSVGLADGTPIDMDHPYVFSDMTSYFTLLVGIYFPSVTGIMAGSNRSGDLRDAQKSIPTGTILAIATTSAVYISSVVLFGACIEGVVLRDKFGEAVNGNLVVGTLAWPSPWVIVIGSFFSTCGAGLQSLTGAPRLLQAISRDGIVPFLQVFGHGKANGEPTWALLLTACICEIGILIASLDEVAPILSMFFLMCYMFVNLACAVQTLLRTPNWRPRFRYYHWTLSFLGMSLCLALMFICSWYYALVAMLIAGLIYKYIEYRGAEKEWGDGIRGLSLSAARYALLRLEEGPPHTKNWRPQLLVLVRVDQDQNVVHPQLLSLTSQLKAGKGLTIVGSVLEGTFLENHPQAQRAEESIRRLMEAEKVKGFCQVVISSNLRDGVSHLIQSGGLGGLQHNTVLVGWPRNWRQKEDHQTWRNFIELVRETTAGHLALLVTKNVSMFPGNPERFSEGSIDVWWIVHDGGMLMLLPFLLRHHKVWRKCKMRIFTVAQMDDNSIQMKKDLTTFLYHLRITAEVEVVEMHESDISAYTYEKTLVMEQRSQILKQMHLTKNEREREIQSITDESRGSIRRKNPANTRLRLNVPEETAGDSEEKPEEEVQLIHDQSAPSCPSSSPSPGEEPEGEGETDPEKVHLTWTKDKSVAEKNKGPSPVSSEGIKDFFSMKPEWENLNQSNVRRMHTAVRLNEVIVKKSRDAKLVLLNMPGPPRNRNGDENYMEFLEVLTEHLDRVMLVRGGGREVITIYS
test-method-notes: concentration-response of KCC2 transport modulators – cell-based, HEK293 KCC2, FluoZin-2 fluorescence, dose response (AID 1736)
pEC50: −log10 of the molar value.
Below, each of the compounds is paired with its reported pEC50 value.
measured-metric: pEC50

O=C(O)CCN(Cc1ccccc1)S(=O)(=O)c1c(Cl)cccc1Cl
4.23
COc1cc(CC(C)N)c(OC)cc1I (stereo not drawn) [[125I]2,5-dimethoxy-4-iodoamphetamine]
3.54
O=C(O)/C=C/c1cn(Cc2ccccc2)nc1-c1ccccc1
5.42
COc1ccc(-c2nnc(S/C(=C/c3ccc(Cl)cc3)C(=O)O)o2)cc1
6.54
O=S(=O)(NC1CCCC1)c1cccc(S(=O)(=O)N2CCC(n3nnc4ccccc43)CC2)c1
5.31
CC(C)(CN=C(S)NCCc1ccccc1)CN=C(S)NCCc1ccccc1
3.78
S=C(NN=Cc1cccc2ccccc12)Nc1cccc(Cl)c1
4.96
Sc1nnc(Cc2cccc3ccccc23)o1
6.52
C=CCNc1oc(Cc2cccc3ccccc23)nc1C#N
5.32
O=C(c1ccc(S(=O)(=O)c2cccc(Cl)c2)c([N+](=O)[O-])c1)N1CCN(c2ccccn2)CC1
5.16
O=C(CSc1ccccc1C(=O)NCc1ccccc1)NC1CCCCCCC1
4.29
CSc1ccccc1N=C(S)Nc1ccc(S(N)(=O)=O)cc1
4.42
O=c1[nH]c2ccc(S(=O)(=O)N3CCN(c4ccccc4F)CC3)cc2s1
5.25
Cc1ccc(C(=O)O)cc1-c1ccc(C=C2NC(=O)N(c3ccccc3)C2=O)o1
4.83
NC(=S)NN=C1C(=O)N(Cc2ccc(F)cc2)c2ccccc21
3.84
COc1ccc(S(=O)(=O)N2CCC(C(=O)N3CCc4ccccc4C3)CC2)cc1C
5.27
COc1cccc(Nc2nnc(S)s2)c1
5.52
CCn1c(=O)n(CC)c2cc(S(=O)(=O)N3CCC(c4ccccc4)CC3)ccc21
4.97
O=C(OCn1ncc(Cl)c(Cl)c1=O)c1ccc(F)cc1
4.85
CCn1nnnc1SCC(=O)Nc1nc(-c2cccs2)cs1
5.88
O=C(Cn1nc(-c2ccccc2)ccc1=O)NCc1ccc2c(c1)OCO2
5.49
COc1ccc(C(=O)N2CCCC(c3ccccc3)C2)cc1 (stereo not drawn)
5.14
COc1ccc(S(=O)(=O)N(C)CC(=O)N2CCN(Cc3ccccc3)CC2)cc1C
5.83
O=C(CSc1ncccc1-c1nc2ccccc2[nH]1)N1CCN(c2ccccc2F)CC1
4.46
Cc1ccc(NC(=O)CSc2ccc(-c3ccco3)nn2)cc1
5.46
COc1cc(OC)c(C2=NOC(C(=O)N3CCc4ccccc4C3)C2)cc1Cl (stereo not drawn)
5.18
Cc1cccc(Nc2nnc(SCC(=O)c3ccc(Br)s3)s2)c1C
5.85
O=C(Cn1c(-c2ccc(Cl)cc2)noc1=O)N1CCN(c2ccccc2F)CC1
3.64
CC1CCN(C(=O)CSc2ccc(-c3ccc(F)cc3)nn2)CC1
5.58
Cc1csc(NC(=O)CSc2ccc(-c3ccccc3)nn2)n1
6.60
O=C(Cn1cnc2c(nnn2Cc2ccc(F)cc2)c1=O)N1CCN(c2ccccc2)CC1
4.70
CN(C)S(=O)(=O)c1cccc(NC(=O)c2cc3c(cc2Cl)N2CCCCC=C2NS3(=O)=O)c1
3.55
O=C(O)c1cc([N+](=O)[O-])ccc1NCc1ccccc1
5.38
O=C(CC(C(=O)N1CCc2ccccc21)n1ccnc1)N1CCc2ccccc2C1 (stereo not drawn)
2.75
COc1ccc(-c2cc(CCCC(=O)NCCc3ccccc3)no2)cc1
6.14
CS/C(=N\Cc1ccc(F)cc1)NS(=O)(=O)c1cccs1
6.15
O=C(C1CCN(c2nc3ccc(Br)cc3s2)CC1)N1CCC2(CC1)OCCO2
4.84
Cc1cccc(OCCc2nnc(N)s2)c1C
4.43
CC12CC3(C)CC(C)(C1)CC(C(=O)NC(=S)N1CCCC1)(C2)C3
5.94
Cc1noc(/C=C/c2ccco2)c1S(=O)(=O)N1CCC(C(=O)N2CCc3ccccc3C2)CC1
5.39
Cc1cccc(-c2nc(C[S+]([O-])CC(=O)N3CCc4ccccc4C3)c(C)o2)c1 (stereo not drawn)
5.14
O=C(CSc1nnc(Cc2ccccc2)o1)c1ccc(F)cc1
5.62
Cc1cc(NC(=O)CSc2ccc(-c3ccc(F)cc3)nn2)no1
6.77

----------
target-or-test-system: Solute carrier family 12 member 5 (Homo sapiens)
Sequence (Q9H2X9 whole entry): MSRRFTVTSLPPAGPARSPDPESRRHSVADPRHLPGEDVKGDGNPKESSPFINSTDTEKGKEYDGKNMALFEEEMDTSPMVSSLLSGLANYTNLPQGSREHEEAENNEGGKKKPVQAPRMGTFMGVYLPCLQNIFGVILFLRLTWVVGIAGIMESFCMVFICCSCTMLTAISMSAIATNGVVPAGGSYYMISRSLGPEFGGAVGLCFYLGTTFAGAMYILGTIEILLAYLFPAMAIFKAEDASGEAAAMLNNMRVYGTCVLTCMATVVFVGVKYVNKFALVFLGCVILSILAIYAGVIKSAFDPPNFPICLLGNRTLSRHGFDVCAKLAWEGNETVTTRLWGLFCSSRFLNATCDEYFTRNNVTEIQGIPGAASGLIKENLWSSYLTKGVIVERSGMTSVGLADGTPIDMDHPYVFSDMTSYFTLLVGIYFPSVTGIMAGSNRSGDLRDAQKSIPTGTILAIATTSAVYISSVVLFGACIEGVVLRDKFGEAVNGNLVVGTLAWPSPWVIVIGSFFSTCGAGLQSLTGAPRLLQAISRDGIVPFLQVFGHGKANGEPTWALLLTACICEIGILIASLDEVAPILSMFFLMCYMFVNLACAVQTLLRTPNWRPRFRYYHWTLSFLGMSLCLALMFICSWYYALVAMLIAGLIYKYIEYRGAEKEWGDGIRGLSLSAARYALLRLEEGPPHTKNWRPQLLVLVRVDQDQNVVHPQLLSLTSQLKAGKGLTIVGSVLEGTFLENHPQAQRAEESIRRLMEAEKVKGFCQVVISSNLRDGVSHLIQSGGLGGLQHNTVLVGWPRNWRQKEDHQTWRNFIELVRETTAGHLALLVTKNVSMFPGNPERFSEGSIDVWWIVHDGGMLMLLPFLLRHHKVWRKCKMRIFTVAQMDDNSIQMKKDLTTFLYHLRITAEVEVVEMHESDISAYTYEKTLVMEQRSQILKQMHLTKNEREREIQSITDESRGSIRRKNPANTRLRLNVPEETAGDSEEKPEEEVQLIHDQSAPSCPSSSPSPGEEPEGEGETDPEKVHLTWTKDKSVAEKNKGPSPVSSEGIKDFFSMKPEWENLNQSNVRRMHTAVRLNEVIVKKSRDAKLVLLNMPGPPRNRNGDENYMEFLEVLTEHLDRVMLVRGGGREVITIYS
test-method-notes: concentration-response of KCC2 transport modulators – cell-based, HEK293 KCC2, FluoZin-2 fluorescence, dose response (AID 1736)
pEC50: −log10 of the molar value.
Known pEC50 of a selection of compounds
measured-metric: pEC50

CCc1ccc(OCCNC(=O)c2ccccc2SCc2ccc(F)cc2)cc1
5.86
CC1Cc2ccccc2N1C(=O)CSc1nnnn1Cc1ccccc1 (stereo not given)
4.87
COc1cc(C=NN(C)c2ccccc2)ccc1O
4.62
O=C(CNC(=O)/C(=C\c1ccc(Br)cc1)NC(=O)c1ccccc1)OCc1ccccc1
6.00
Cc1n[nH]c(O)c1C(c1ccc(-c2ccc(F)cc2)o1)c1c(C)n[nH]c1O
5.08
